- assay target: T1, murine CD22 protein (ACROBiosystems, SI2-M52Ha) (murine, UniProt P35329 22-708)
- T1 construct: extracellular domain; also called murine CD22-ECD; murine CD22-ECD-His
- T1 sequence (looked up): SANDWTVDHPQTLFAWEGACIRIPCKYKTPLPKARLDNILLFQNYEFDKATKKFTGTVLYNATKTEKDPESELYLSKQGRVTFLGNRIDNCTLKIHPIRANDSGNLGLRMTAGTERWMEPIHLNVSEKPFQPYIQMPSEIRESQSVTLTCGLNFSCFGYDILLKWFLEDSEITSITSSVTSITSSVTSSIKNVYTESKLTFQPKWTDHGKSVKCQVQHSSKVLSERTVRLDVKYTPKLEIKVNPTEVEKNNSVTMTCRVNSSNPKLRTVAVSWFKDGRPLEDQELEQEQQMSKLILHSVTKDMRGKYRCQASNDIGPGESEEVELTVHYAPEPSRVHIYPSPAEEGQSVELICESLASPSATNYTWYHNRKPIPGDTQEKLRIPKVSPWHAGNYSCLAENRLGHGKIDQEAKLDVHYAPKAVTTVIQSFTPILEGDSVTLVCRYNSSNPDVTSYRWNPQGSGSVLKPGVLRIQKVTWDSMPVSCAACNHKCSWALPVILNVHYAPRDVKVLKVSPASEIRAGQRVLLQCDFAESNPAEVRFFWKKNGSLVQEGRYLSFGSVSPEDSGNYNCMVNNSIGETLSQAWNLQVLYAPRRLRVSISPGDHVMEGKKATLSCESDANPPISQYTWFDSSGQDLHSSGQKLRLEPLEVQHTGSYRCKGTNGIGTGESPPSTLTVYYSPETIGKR
- experiment: ELISA, coated murine CD22, 0.0001 nM Ab
- Method: In order to detect the binding activity of CD22 human-murine chimeric antibodies to CD22 protein, the purified human CD22-ECD-His protein obtained in Example 2 was diluted with PBS to a final concentration of 2 μg/mL, and then added to 96-well ELISA plate at 100 μl/well. The plate was sealed with plastic film and incubated overnight at 4° C., the plate was washed 2 times with PBS the next day, and then a blocking solution [PBS+2% (w/w) BSA] was added for blocking at room temperature for 2 hours. […]
Entries and their OD450
Just the number please, in OD450, no unit attached.

# annotated cases, reported OD450 shown
Give OD450 for F2.127.11 human-murine chimeric antibody (antibody, human IgG1, lambda, V domains shown, Chimeric, human IgG1 / lambda; VL tied by name) VH: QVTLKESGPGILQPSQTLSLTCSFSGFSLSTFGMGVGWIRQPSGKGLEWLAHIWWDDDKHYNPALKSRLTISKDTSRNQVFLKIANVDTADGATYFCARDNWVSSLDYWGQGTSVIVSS VL: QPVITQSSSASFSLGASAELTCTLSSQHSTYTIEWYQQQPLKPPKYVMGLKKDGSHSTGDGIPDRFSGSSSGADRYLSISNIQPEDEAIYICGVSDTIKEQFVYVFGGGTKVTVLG
0.06

Give OD450 for F2.104.10 human-murine chimeric antibody (antibody, human IgG1, lambda, V domains shown, Chimeric, human IgG1 / lambda) VH: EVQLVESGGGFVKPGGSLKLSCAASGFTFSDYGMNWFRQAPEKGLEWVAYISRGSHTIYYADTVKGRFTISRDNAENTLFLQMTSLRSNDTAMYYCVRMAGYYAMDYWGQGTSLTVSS VL: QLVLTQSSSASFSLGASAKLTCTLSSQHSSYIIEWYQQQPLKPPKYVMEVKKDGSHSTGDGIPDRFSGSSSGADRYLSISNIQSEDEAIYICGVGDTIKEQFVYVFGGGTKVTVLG
0.06

Give OD450 for F1.224.1 human-murine chimeric antibody (antibody, human IgG1, kappa, V domains shown, Chimeric, human IgG1 / kappa; VL tied by name) VH: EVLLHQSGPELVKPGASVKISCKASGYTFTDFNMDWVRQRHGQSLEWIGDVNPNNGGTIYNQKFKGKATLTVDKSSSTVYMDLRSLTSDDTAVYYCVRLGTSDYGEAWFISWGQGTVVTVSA VL: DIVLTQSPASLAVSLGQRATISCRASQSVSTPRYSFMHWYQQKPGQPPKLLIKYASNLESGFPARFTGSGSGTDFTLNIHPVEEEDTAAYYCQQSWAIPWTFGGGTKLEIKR
0.05

New cases:
Give OD450 for F1.62.10 human-murine chimeric antibody (antibody, human IgG1, kappa, V domains shown, Chimeric, human IgG1 / kappa) VH: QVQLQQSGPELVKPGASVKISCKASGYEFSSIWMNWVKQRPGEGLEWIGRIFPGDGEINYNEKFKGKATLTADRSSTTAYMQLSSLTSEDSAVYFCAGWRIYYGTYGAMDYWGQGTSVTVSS VL: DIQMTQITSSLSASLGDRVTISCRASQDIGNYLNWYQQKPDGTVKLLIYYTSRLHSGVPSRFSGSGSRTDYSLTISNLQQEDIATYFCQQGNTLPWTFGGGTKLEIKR
0.06

Give OD450 for F1.172.13 human-murine chimeric antibody (antibody, human IgG1, kappa, V domains shown, Chimeric, human IgG1 / kappa) VH: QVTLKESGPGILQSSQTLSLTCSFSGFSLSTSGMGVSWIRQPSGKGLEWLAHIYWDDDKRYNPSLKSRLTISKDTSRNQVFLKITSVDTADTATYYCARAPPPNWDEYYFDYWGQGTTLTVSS VL: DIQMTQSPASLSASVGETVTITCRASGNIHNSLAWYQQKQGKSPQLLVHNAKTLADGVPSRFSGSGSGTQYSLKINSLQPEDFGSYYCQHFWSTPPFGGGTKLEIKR
0.06

Give OD450 for F1.192.1 human-murine chimeric antibody (antibody, human IgG1, kappa, V domains shown, Chimeric, human IgG1 / kappa) VH: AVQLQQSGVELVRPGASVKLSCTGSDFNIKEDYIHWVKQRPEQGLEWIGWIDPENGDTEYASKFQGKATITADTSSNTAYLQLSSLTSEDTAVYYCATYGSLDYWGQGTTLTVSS VL: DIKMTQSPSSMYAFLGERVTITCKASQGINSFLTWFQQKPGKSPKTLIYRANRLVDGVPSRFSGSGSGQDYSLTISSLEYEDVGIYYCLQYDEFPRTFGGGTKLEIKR
0.07

Give OD450 for F1.280.1 human-murine chimeric antibody (antibody, human IgG1, kappa, V domains shown, Chimeric, human IgG1 / kappa) VH: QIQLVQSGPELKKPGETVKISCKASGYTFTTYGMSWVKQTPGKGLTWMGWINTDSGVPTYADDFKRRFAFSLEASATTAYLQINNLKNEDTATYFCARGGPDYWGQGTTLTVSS VL: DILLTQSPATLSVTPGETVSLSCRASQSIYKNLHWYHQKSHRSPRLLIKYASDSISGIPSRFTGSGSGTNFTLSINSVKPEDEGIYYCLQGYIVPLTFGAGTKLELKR
0.05
